Recorded values, source patent US11066413B2.

- target: UniProtKB P29274
- Sequence (P29274 whole entry): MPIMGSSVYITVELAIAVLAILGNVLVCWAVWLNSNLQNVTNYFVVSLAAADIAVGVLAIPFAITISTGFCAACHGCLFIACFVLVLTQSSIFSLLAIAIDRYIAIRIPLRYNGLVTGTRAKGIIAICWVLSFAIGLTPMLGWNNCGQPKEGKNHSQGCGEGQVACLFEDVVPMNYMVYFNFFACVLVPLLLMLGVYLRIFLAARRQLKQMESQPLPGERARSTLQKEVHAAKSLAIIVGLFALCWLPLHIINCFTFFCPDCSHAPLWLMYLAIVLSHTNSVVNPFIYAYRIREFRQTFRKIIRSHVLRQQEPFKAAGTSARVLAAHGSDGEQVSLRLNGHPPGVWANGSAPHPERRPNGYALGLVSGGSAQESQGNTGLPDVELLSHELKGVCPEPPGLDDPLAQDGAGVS
- experiment_summary: binding affinity IC50 to hA2A receptor ([3H]-CGS 21680 filter binding, Effect Embodiment 2)
- test_context: A2A membrane, [3H]-CGS 21680 (final 25 nM), 90 minutes at 25° C.
List of pIC50 values.
Value format note: pIC50 is -log10 of concentration (mol/L); just state the number.

The following compounds have reported results that may help.
Cc1ccc(-c2nc(N)nc3c2n(C)c(=O)n3-c2ccccc2C(F)(F)F)o1 :: 6.67
Nc1nc(-c2ccco2)c2c(n1)C(Cc1c(F)cccc1Cl)OC2=O (centres unmarked) :: 7.53
Nc1nc(-c2ccco2)c2c(n1)C(Cc1ccccc1C(F)(F)F)OC2=O (centres unmarked) :: 7.80
Cc1ccc(-c2nc(N)nc3c2C(=O)OC3Cc2ccccc2OC(F)(F)F)o1 (centres unmarked) :: 7.55
Cc1ccc(-c2nc(N)nc3c2C(=O)N(C)C3Cc2ccc(F)cc2C(F)(F)F)o1 (centres unmarked) :: 6.82
CN1C(=O)c2c(nc(N)nc2-c2ccco2)C1=Cc1ccccc1F :: 8.21
Cc1ccc(-c2nc(N)nc3c2C(=O)OC3Cc2cc(F)ccc2F)o1 (centres unmarked) :: 6.60
CN1C(=O)c2c(-c3ccco3)nc(N)nc2C1Cc1ccccc1OC(F)(F)F (centres unmarked) :: 7.94

query: What pIC50 value was documented for this compound, Nc1nc(-c2ccco2)c2c(n1)C(Cc1ccc(F)cc1F)OC2=O (centres unmarked) ?
result: 7.97

query: Continue with Cc1ccccc1CC1OC(=O)c2c(-c3ccco3)nc(N)nc21 (centres unmarked)
result: 7.51
